Where do these numbers come from? They come from PubChem BioAssay (Tox21).

Test: qHTS assay to identify small molecule antagonists of the estrogen receptor beta (ER-beta) signaling pathway - cell viability counter screen (AID 1259382); also: nearly all actives have a fitted effect of over 55% in size
Settings: ER-beta-UAS-bla HEK293T viability, CellTiter-Glo luminescence, 16 h; series mostly up to 92.4 µM
Results filed as inconclusive are left out. Active and inactive are the calls of the source. Calls follow the shape of the dose curve; as a rule, active = well fitted cell-killing curve with a large enough effect in the repeat runs; inconclusive = weak or mixed curves; inactive = flat fitted curve, though single readings scatter.
Entry note: the call must match one of yes for active, no for inactive

Consider the following illustrative entries.
{"columns": ["molecule", "labelClass"],
 "data": [
  ["NC(=O)N1C(=O)C(C(=O)c2cc(Cl)cs2)c2cc(F)c(Cl)cc21 (stereo unspecified)", "yes"],
  ["Cc1cccc(CN2CCN(C(c3ccccc3)c3ccc(Cl)cc3)CC2)c1 (stereo unspecified)", "no"],
  ["CSc1ccc2c(c1)C(N1CCN(C)CC1)Cc1ccccc1S2 (stereo unspecified)", "yes"]
]}

What did the test return for `Nc1c(Cl)cc(Cl)cc1Cl` ?
no

Test call for this molecule, please: `Cc1cc(O)c(C(C)(C)C)cc1C(C)(C)C`
yes

Recorded test outcome, item `Oc1ccc2cc(SSc3ccc4cc(O)ccc4c3)ccc2c1`
no

# lookup: test call for `CN(C/C=C/C#CC(C)(C)C)Cc1cccc2ccccc12`
yes

* * *

Experiment: A CellTox Green Cytotoxicity Assay to monitor cytotoxicity in HEK293 cells - 16 hour (AID 1224888); also: nearly all actives have a fitted effect of over 35% in size
Conditions: CellTox Green fluorescence; series mostly up to 76.8 µM
Records with an inconclusive call do not appear. The source made the active and inactive calls. Calls come from the whole dose curve; as a rule, active = well fitted activation curve with a large enough effect in the repeat runs; inconclusive = weak or mixed curves; inactive = flat fitted curve, though single readings scatter.
Select the matching outcome among active, inactive

Before answering, review these 3 worked examples.
{"columns": ["compound", "labelClass"],
 "data": [
  ["CC(C)(C)C1CCC(CC2=C(O)c3ccccc3C(=O)C2=O)CC1 (centres undefined)", "inactive"],
  ["[O-][n+]1ccccc1SSc1cccc[n+]1[O-]", "active"],
  ["C[C@H](CCC(=O)O)[C@H]1CC[C@H]2[C@@H]3CC[C@@H]4C[C@H](O)CC[C@]4(C)[C@H]3CC[C@]12C", "inactive"]
]}

// return assay outcome for `O=[N+]([O-])c1cc([N+](=O)[O-])c2ccc(S(=O)(=O)O)cc2c1O`
inactive

Hey, what did the test say about CCC(Cl)C(Cl)C(Cl)CC(Cl)C(Cl)C(C)Cl (centres undefined) ?
inactive

Hi team, can someone confirm the assay call for `CCN(C(=O)c1cc(C)cc(OC[C@H](C)Nc2ccncc2)c1)C(C)C` ?
inactive

GET /call?item= `Cc1ccc(O)c(C(C)(C)C)c1` returns the recorded outcome of this test.
inactive

Tell me the assay call for `CCCCCCCC(=O)[O-].CCCCCCCC(=O)[O-].[Zn+2]` please.
inactive

* * *

Test: Caspase-3/7 induction in HepG2 cells by small molecules, qHTS assay (AID 1346978); also: nearly all actives have a fitted effect of over 15% in size
Settings: HepG2 caspase-3/7 activation, Caspase-Glo luminescence, 17 h; series mostly up to 92.4 µM
Results filed as inconclusive are left out. Activity calls are given as the source filed them. Calls follow the shape of the dose curve; as a rule, active = well fitted activation curve with a large enough effect in the repeat runs; inconclusive = weak or mixed curves; inactive = flat fitted curve, though single readings scatter.
Choose one outcome from this list and give only that: T (active), F (inactive)

Solved cases below.
{"columns": ["compound", "labelClass"],
 "data": [
  ["OCCN(CCO)c1nc(N2CCCCC2)c2nc(N(CCO)CCO)nc(N3CCCCC3)c2n1", "F"],
  ["C[n+]1ccn(Cc2ccccc2)c1", "F"]
]}

GET /call?item= `Cc1ccc(O)c(C(C)(C)C)c1` returns the recorded outcome of this test.
T

How was `CCCCCCCCCCC=O` classified in this test?
F

// param item: `O=C(Nc1cccc([N+](=O)[O-])c1)c1cc2ccccc2cc1O` ; yields the recorded call
F

Test call for this compound, please: `Oc1ccc2c(c1)-c1ccccc1C2`
F

Assay result, entry `Oc1cc2ccccc2c2ccccc12` — outcome?
F

So what was the verdict on CC(=O)OCC(C)OC(C)=O (centres undefined) in this test?
F
